# method.notes: In vivo pharmacokinetic study of oral rotundic acid with or without verapamil pre-treatment
# Design: species or system Sprague–Dawley rats
# condition.context: male, Sprague-Dawley, rat, plasma, po, 10 mg/kg, rats, RA 10 mg/kg oral, control (vehicle)
# Protocol: Male Sprague–Dawley rats (180–220 g) were purchased from SiPeiFu (Beijing) Biotechnology Co., Ltd. (Beijing, China). Rats were housed in a breeding room at stable temperature (22 ± 3 °C), humidity (55 ± 10%), and under non-pathogenic conditions. All animals were placed under the above conditions and acclimatized to the facilities for one week, then fasted for 12 h with water ad libitum before the experiments. […]
measure: AUC(0-inf) (ng·h/mL)
The reply should contain only the number, in ng·h/mL.

Req: Can you look up the measured AUC(0-inf) of C[C@@H]1CC[C@]2(C(=O)O)CC[C@]3(C)C(=CC[C@@H]4[C@@]5(C)CC[C@H](O)[C@@](C)(CO)[C@@H]5CC[C@]43C)[C@@H]2[C@]1(C)O [RA, Rotundic acid] for me?
Resp: 432

====

# method.notes: Metabolic stability in rat liver microsomes with or without verapamil
# Format: in vitro ADME
# condition.context: rat, liver microsomes, pH 7.4; RLMs 1 mg/mL, RA 2 µM, control
measure: microsomal CLint at 2 µM (µL/min/mg)
The reply should contain only the number, in µL/min/mg.

Req: Can you look up the measured microsomal CLint at 2 µM of C[C@@H]1CC[C@]2(C(=O)O)CC[C@]3(C)C(=CC[C@@H]4[C@@]5(C)CC[C@H](O)[C@@](C)(CO)[C@@H]5CC[C@]43C)[C@@H]2[C@]1(C)O for me?
Resp: 48.5

====

# Tested on: P-gp
# method.notes: Bidirectional transport across Caco-2 cell monolayer
# Type: in vitro ADME, human
# condition.context: human, pH 7.4, with verapamil 50 µM; Caco-2, 25 µM RA, 60 min, + 50 µM verapamil
measure: Papp A→B at 60 min, 25 µM (×10⁻⁶ cm/s)
The reply should contain only the number, in ×10⁻⁶ cm/s.

Req: Can you look up the measured Papp A→B at 60 min, 25 µM of C[C@@H]1CC[C@]2(C(=O)O)CC[C@]3(C)C(=CC[C@@H]4[C@@]5(C)CC[C@H](O)[C@@](C)(CO)[C@@H]5CC[C@]43C)[C@@H]2[C@]1(C)O for me?
Resp: 4.71

====

# method.notes: Metabolic stability in rat liver microsomes with or without verapamil
# Type: in vitro ADME
# condition.context: rat, liver microsomes, pH 7.4; RLMs 1 mg/mL, RA 2 µM, control; read-out: ke (converted)
measure: k el at 2 µM (s⁻¹)
The reply should contain only the number, in s⁻¹.

Req: Can you look up the measured k el at 2 µM of C[C@@H]1CC[C@]2(C(=O)O)CC[C@]3(C)C(=CC[C@@H]4[C@@]5(C)CC[C@H](O)[C@@](C)(CO)[C@@H]5CC[C@]43C)[C@@H]2[C@]1(C)O for me?
Resp: 0.000808

====

# Test system: P-gp
# method.notes: Bidirectional transport across Caco-2 cell monolayer
# Type: in vitro ADME, human
# condition.context: human, pH 7.4, with verapamil 50 µM; Caco-2, 25 µM RA, 20 min, + 50 µM verapamil
measure: Papp A→B at 20 min, 25 µM
Give the value; after it, write the unit.

Req: Can you look up the measured Papp A→B at 20 min, 25 µM of C[C@@H]1CC[C@]2(C(=O)O)CC[C@]3(C)C(=CC[C@@H]4[C@@]5(C)CC[C@H](O)[C@@](C)(CO)[C@@H]5CC[C@]43C)[C@@H]2[C@]1(C)O for me?
Resp: 2.45 ×10⁻⁶ cm/s

====

# method.notes: In vivo pharmacokinetic study of oral rotundic acid with or without verapamil pre-treatment
# Parameters: species or system Sprague–Dawley rats
# condition.context: male, Sprague-Dawley, rat, plasma, po, 10 mg/kg, rats, RA 10 mg/kg oral, pre-treatment of verapamil 50 mg/kg; read-out: AUC0–24
measure: AUC(0-t) (ng·h/mL)
The reply should contain only the number, in ng·h/mL.

Req: Can you look up the measured AUC(0-t) of C[C@@H]1CC[C@]2(C(=O)O)CC[C@]3(C)C(=CC[C@@H]4[C@@]5(C)CC[C@H](O)[C@@](C)(CO)[C@@H]5CC[C@]43C)[C@@H]2[C@]1(C)O for me?
Resp: 782

====

# System: P-gp
# method.notes: Bidirectional transport across Caco-2 cell monolayer
# Format: in vitro ADME, human
# condition.context: human, pH 7.4, with verapamil 50 µM; Caco-2, 25 µM RA, 60 min, + 50 µM verapamil
measure: Papp B→A at 60 min, 25 µM (×10⁻⁶ cm/s)
The reply should contain only the number, in ×10⁻⁶ cm/s.

Req: Can you look up the measured Papp B→A at 60 min, 25 µM of C[C@@H]1CC[C@]2(C(=O)O)CC[C@]3(C)C(=CC[C@@H]4[C@@]5(C)CC[C@H](O)[C@@](C)(CO)[C@@H]5CC[C@]43C)[C@@H]2[C@]1(C)O [RA, Rotundic acid] for me?
Resp: 5.29
